- Assay system: unphosphorylated PDGFRβ kinase (uPDGFRβ, Seq. ID No. 3) (Homo sapiens)
- Sequence (P09619 557-1106): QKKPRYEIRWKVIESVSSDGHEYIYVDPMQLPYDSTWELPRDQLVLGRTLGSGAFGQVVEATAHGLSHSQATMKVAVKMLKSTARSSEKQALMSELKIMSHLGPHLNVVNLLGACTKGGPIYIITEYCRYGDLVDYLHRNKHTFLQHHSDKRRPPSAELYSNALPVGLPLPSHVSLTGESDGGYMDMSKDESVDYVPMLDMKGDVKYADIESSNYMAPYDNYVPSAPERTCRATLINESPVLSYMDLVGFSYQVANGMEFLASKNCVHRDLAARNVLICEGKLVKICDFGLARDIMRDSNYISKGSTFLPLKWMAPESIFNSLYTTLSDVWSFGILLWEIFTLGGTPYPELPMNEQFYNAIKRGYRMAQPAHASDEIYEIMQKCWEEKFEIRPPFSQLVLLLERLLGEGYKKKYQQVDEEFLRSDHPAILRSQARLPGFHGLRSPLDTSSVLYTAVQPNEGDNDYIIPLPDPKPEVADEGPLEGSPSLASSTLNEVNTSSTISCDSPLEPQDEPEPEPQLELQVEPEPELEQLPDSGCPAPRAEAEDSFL
- Assay summary: biochemical
- Cond: uPDGFRb, enzymatic assay, ATP 500 μM
pIC50: −log10 of the molar value.
Parameter: pIC50

Guide cases for pIC50, answers given:
Molecule	Assay system	Parameter	Result
Cc1nc(NC(=O)NC(=O)CCC2(C(F)(F)F)CC2)ccc1Oc1ccnc(-c2cnn(C)c2)c1	unphosphorylated PDGFRβ kinase (uPDGFRβ, Seq. ID No. 3) (Homo sapiens)	pIC50	7.00 to 8.00
C=CCn1cc(-c2cc(Oc3ccc(NC(=O)NC(=O)C(C)(C)OC)nc3)ccn2)cn1	unphosphorylated PDGFRβ kinase (uPDGFRβ, Seq. ID No. 3) (Homo sapiens)	pIC50	< 6.00

Identify measured pIC50 associated with "Cc1nc(NC(=O)NC(=O)C2(C(F)(F)F)CCC2)ccc1Oc1ccnc(-c2cnn(C)c2)c1"
6.00 to 7.00

Identify measured pIC50 associated with "Cn1cc(-c2cc(Oc3ccc(NC(=O)NC(=O)C4CC(C)(C)C4)nc3)ccn2)cn1"
7.00 to 8.00

Identify measured pIC50 associated with "Cn1cc(-c2cc(Oc3ccc(NC(=O)NC(=O)C4(C)CC4)nc3)ccn2)cn1"
< 6.00

Identify measured pIC50 associated with "Cc1nc(NC(=O)NC(=O)C2CC3(CCC3)C2)ccc1Oc1ccnc(-c2cnn(C)c2)c1"
7.00 to 8.00

Identify measured pIC50 associated with "CCc1nc(NC(=O)NC(=O)C2(C)CCOCC2)ccc1Oc1ccnc(-c2cnn(C)c2)c1"
< 6.00

Identify measured pIC50 associated with "Cc1cc(NC(=O)NC(=O)C2CCOCC2)nc(C)c1Oc1ccnc(-c2cnn(C)c2)c1"
6.00 to 7.00

Identify measured pIC50 associated with Cc1cn(-c2cc(Oc3ccc(NC(=O)NC(=O)C4CCOC4)nc3C)ccn2)cn1 (stereo not shown)
< 6.00

Identify measured pIC50 associated with "CC(C)(C)C(=O)NC(=O)Nc1ccc(Oc2ccnc(-c3ccc(C(F)(F)F)nc3)c2)cn1"
< 6.00

Identify measured pIC50 associated with "COC(C)(C)C(=O)NC(=O)Nc1ccc(Oc2ccnc(-c3cnc(C)n3C)c2)cn1"
< 6.00

Identify measured pIC50 associated with "COC1(C(=O)NC(=O)Nc2ccc(Oc3ccnc(-c4cnn(C)c4)c3)c(C)n2)CCCC1"
6.00 to 7.00

###

- Assay system: unphosphorylated PDGFRβ kinase (uPDGFRβ, Seq. ID No. 3) (Homo sapiens)
- Assay summary: biochemical
- Cond: uPDGFRb, enzymatic assay, ATP 500 μM
Parameter: IC50

Compound	IC50
Cc1ncc(-c2cc(Oc3ccc(NC(=O)NC(=O)C4(C)CCOCC4)nc3)ccn2)s1 [Example 158]	0.1 to 1 µM
Cc1ccc(-c2cc(Oc3ccc(NC(=O)NC(=O)C4CCCC4)nc3C)ccn2)cn1 [Example 100]	> 1 µM
Cc1cc(NC(=O)NC(=O)C(C)(C)C)nc(C)c1Oc1ccnc(-c2cnn(C)c2)c1 [Example 116]	0.01 to 0.1 µM
COC1(C(=O)NC(=O)Nc2ccc(Oc3ccnc(-c4cc(C)no4)c3)c(C)n2)CCCC1 [Example 166]	0.1 to 1 µM
Cn1cc(-c2cc(Oc3ccc(NC(=O)NC(=O)C45CC6CC(CC(C6)C4)C5)nc3)ccn2)cn1 [Example 38]	< 0.01 µM
COC(C)(C)C(=O)NC(=O)Nc1cc(C)c(Oc2ccnc(-n3cnc(C)c3)c2)cn1 [Example 164]	> 1 µM
CC(C)c1nc(-c2cc(Oc3ccc(NC(=O)NC(=O)C(C)(C)C)nc3)ccn2)c[nH]1 [Example 169]	> 1 µM
CCOC(C)(C)C(=O)NC(=O)Nc1ccc(Oc2ccnc(-c3ccnc(C)c3)c2)cn1 [Example 161]	> 1 µM

Identify measured IC50 associated with CCc1nc(NC(=O)NC(=O)C2CCOCC2)ccc1Oc1ccnc(-c2cnn(C)c2)c1 [Example 83]
> 1 µM

Identify measured IC50 associated with Cc1ncc(-c2cc(Oc3ccc(NC(=O)NC(=O)C(C)(C)C)nc3C)ccn2)s1 [Example 86]
> 1 µM

Identify measured IC50 associated with Cn1cnc(-c2cc(Oc3ccc(NC(=O)NC(=O)C(C)(C)C)nc3)ccn2)c1 [Example 104]
> 1 µM

Identify measured IC50 associated with COC(C)(C)C(=O)NC(=O)Nc1ccc(Oc2ccnc(-c3ccc(C)nc3)c2)cn1 [Example 72]
0.1 to 1 µM

Identify measured IC50 associated with Cc1nc(NC(=O)NC(=O)C(C)(C)C(F)(F)F)ccc1Oc1ccnc(-c2cnn(C)c2)c1 [Example 36]
0.1 to 1 µM

###

- Assay system: unphosphorylated c-KIT kinase (uKIT, Seq. ID no. 2) (Homo sapiens, UniProt P10721)
- Sequence (P10721 with tags, fused parts or gaps): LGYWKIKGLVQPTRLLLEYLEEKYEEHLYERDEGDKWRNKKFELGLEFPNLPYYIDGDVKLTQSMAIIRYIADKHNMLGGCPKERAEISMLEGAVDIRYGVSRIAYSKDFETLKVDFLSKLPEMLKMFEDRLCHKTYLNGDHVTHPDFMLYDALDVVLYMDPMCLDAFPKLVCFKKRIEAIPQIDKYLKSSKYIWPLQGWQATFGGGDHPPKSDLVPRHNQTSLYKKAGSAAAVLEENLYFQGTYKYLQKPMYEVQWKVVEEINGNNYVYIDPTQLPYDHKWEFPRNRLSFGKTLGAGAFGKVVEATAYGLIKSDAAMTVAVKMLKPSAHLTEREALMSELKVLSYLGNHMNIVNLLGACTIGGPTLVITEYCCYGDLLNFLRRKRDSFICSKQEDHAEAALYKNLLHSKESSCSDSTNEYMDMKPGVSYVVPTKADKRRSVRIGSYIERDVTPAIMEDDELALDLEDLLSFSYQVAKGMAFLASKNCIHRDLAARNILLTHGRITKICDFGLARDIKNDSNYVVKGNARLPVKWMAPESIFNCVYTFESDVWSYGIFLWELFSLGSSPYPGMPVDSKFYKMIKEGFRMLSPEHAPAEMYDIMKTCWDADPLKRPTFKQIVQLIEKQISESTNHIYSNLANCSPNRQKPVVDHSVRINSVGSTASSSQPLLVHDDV
- Assay summary: biochemical
- Cond: uKIT, enzymatic assay, ATP 2000 μM
Measured IC50 by item

Guide cases for IC50, answers given:
Molecule	IC50
Cn1cc(-c2cc(Oc3ccc(NC(=O)NC(=O)C4CCOCC4)nc3)ccn2)cn1 [Example 68]	100 to 1000 nM
Cc1ncc(-c2cc(Oc3ccc(NC(=O)NC(=O)C4CCOCC4)nc3C)ccn2)s1 [Example 129]	> 1000 nM
Cc1cc(-c2cc(Oc3ccc(NC(=O)NC(=O)C(C)(C)C)nc3C)ccn2)ccn1 [Example 56]	> 1000 nM
Cc1ncc(-c2cc(Oc3ccc(NC(=O)NC(=O)C(C)(C)C)nc3)ccn2)s1 [Example 70]	> 1000 nM
COC1(C(=O)NC(=O)Nc2ccc(Oc3ccnc(-c4cnc(C)s4)c3)cn2)CCCC1 [Example 149]	100 to 1000 nM
Cc1nc(NC(=O)NC(=O)C2CC(C)(C)C2)ccc1Oc1ccnc(-c2cnn(C)c2)c1 [Example 13]	< 10 nM

Identify measured IC50 associated with CC(C)(C)C(=O)NC(=O)Nc1ccc(Oc2ccnc(-c3cncnc3)c2)cn1 [Example 90]
> 1000 nM

Identify measured IC50 associated with Cn1cc(-c2cc(Oc3ccc(NC(=O)NC(=O)C4CC(C)(C)C4)nc3)ccn2)cn1 [Example 2]
< 10 nM

Identify measured IC50 associated with COC1(C(=O)NC(=O)Nc2cc(C)c(Oc3ccnc(-n4cnc(C)c4)c3)cn2)CCCC1 [Example 162]
10 to 100 nM

###

- Assay system: unphosphorylated c-KIT kinase (uKIT, Seq. ID no. 2) (Homo sapiens)
- Assay summary: biochemical
- Cond: uKIT, enzymatic assay, ATP 2000 μM
pIC50: −log10 of the molar value.
Parameter: pIC50

Guide cases for pIC50, answers given:
Compound	Assay system	pIC50
Cc1nc(NC(=O)NC(=O)C(C)(C)C)ccc1Oc1ccnc(-c2ccc(C3CCN(C)CC3)cc2)c1 [Example 109]	unphosphorylated c-KIT kinase (uKIT, Seq. ID no. 2) (Homo sapiens)	6.00 to 7.00
CN1CCN(CC(=O)NC(=O)Nc2ccc(Oc3ccnc(-c4cnn(C)c4)c3)cn2)CC1 [Example 49]	unphosphorylated c-KIT kinase (uKIT, Seq. ID no. 2) (Homo sapiens)	< 6.00
Cc1nc(NC(=O)NC(=O)CN2CCN(C)CC2)ccc1Oc1ccnc(-c2cnn(C)c2)c1 [Example 50]	unphosphorylated c-KIT kinase (uKIT, Seq. ID no. 2) (Homo sapiens)	< 6.00

Identify measured pIC50 associated with Cn1cc(-c2cc(Oc3ccc(NC(=O)NC(=O)CC(C)(C)C(F)(F)F)nc3)ccn2)cn1 [Example 48]
> 8.00

Identify measured pIC50 associated with CNc1ccc(-c2cc(Oc3ccc(NC(=O)NC(=O)C(C)(C)C)nc3)ccn2)cn1 [Example 105]
6.00 to 7.00

Identify measured pIC50 associated with Cc1nc(NC(=O)NC(=O)C2CCC(F)(F)CC2)ccc1Oc1ccnc(-c2cnn(C)c2)c1 [Example 12]
7.00 to 8.00

###

Measured pIC50 by item
- Test system: M-NFS-60 cells
- Assay summary: cells
- Cond: 67 h, read-out: M-NFS-60 cell proliferation
pIC50: −log10 of the molar value.

Guide cases for pIC50, answers given:
Compound	Result
CN1CCN(CC(=O)NC(=O)Nc2ccc(Oc3ccnc(-c4cnn(C)c4)c3)cn2)CC1	< 6.00
Cc1ncc(-c2cc(Oc3ccc(NC(=O)NC(=O)C(C)(C)C)nc3C)ccn2)s1	> 8.00
C=CCn1cc(-c2cc(Oc3ccc(NC(=O)NC(=O)C(C)(C)OC)nc3)ccn2)cn1	7.00 to 8.00

Identify measured pIC50 associated with "Cc1nc(NC(=O)NC(=O)CN2CCN(C)CC2)ccc1Oc1ccnc(-c2cnn(C)c2)c1"
< 6.00

Identify measured pIC50 associated with "Cc1ccc(-c2cc(Oc3ccc(NC(=O)NC(=O)C(C)(C)C)nc3)ccn2)cn1"
7.00 to 8.00

Identify measured pIC50 associated with Cn1cc(-c2cc(Oc3ccc(NC(=O)NC(=O)C4CC5CCC4CC5)nc3)ccn2)cn1 (centres unmarked)
> 8.00

Identify measured pIC50 associated with "Cc1nc(NC(=O)NC(=O)C(C)(C)C)ccc1Oc1ccnc(-c2cncs2)c1"
7.00 to 8.00

Identify measured pIC50 associated with "COC(C)(C)C(=O)NC(=O)Nc1ccc(Oc2ccnc(-c3cnc(C)o3)c2)cn1"
7.00 to 8.00

Identify measured pIC50 associated with "CC(C)(C)C(=O)NC(=O)Nc1ccc(Oc2ccnc(-c3ccnc(C(F)(F)F)c3)c2)cn1"
6.00 to 7.00

Identify measured pIC50 associated with "Cc1cc(NC(=O)NC(=O)C(C)(C)C)ncc1Oc1ccnc(-c2cnn(C)c2)c1"
> 8.00

Identify measured pIC50 associated with "CCOC(C)(C)C(=O)NC(=O)Nc1ccc(Oc2ccnc(-c3ccnc(C)c3)c2)cn1"
7.00 to 8.00

Identify measured pIC50 associated with "Cc1ncc(-c2cc(Oc3ccc(NC(=O)NC(=O)C4CCOCC4)nc3)ccn2)s1"
6.00 to 7.00

Data credit: patent US9382228B2
